# Tested on: E. coli ATCC 25922
# Assay type: cell-based, Escherichia coli
# Run parameters: ATCC 25922
Peptide text beside a SMILES is read from it.
Reported MIC E. coli ATCC 25922 values follow for various molecules
Numbers only; they are read as µM.

molecule="CC(C)C[C@H](NC(=O)[C@H](CC(C)C)NC(=O)[C@H](CCCCN)NC(=O)CNC(=O)[C@H](C)NC(=O)[C@H](CC(C)C)NC(=O)[C@H](CO)NC(=O)[C@H](CC(C)C)NC(=O)[C@H](CC(C)C)NC(=O)[C@H](CO)NC(=O)[C@H](CC(C)C)NC(=O)[C@H](CC(C)C)NC(=O)CN)C(N)=O [DFT511, GLLSLLSLAGKLL] (H-GLLSLLSLAGKLL-NH2; N-terminus assumed)" unit_abbreviation=µM val=3.1

What measured MIC E. coli ATCC 25922 goes with CC[C@H](C)[C@H](NC(=O)[C@H](CCCCN)NC(=O)[C@H](CCCNC(=N)N)NC(=O)[C@@H](N)CC(C)C)C(=O)N[C@@H](Cc1c[nH]c2ccccc12)C(=O)N[C@@H](Cc1c[nH]c2ccccc12)C(=O)N[C@@H](Cc1c[nH]c2ccccc12)C(=O)N[C@@H](Cc1c[nH]c2ccccc12)C(=O)O [WW294, LRKIWWWW] (H-LRKIWWWW-OH; N-terminus and C-terminus assumed) ?
12.5

* * *

# System: human red blood cells (hRBCs)
# Method description: Hemolytic assay
# Format: cell-based
Peptide text beside a SMILES is read from it.
Parameter HL50: see the listing below.
Answer with a number only, understood to be in µM.

molecule="CC(C)C[C@H](NC(=O)[C@H](CC(C)C)NC(=O)[C@H](CCCCN)NC(=O)CNC(=O)[C@H](C)NC(=O)[C@H](CC(C)C)NC(=O)[C@H](CO)NC(=O)[C@H](CC(C)C)NC(=O)[C@H](CC(C)C)NC(=O)[C@H](CO)NC(=O)[C@H](CC(C)C)NC(=O)[C@H](CC(C)C)NC(=O)CN)C(N)=O [DFT511, GLLSLLSLAGKLL] (H-GLLSLLSLAGKLL-NH2; N-terminus assumed)" unit_abbreviation=µM val=14
molecule="CC(C)C[C@H](NC(=O)[C@H](CC(C)C)NC(=O)[C@H](CCCCN)NC(=O)CNC(=O)[C@H](CC(C)C)NC(=O)[C@H](CC(C)C)NC(=O)[C@H](CO)NC(=O)[C@H](CC(C)C)NC(=O)[C@H](CC(C)C)NC(=O)[C@H](CO)NC(=O)[C@H](CC(C)C)NC(=O)[C@H](C)NC(=O)CN)C(N)=O [DFT506, GALSLLSLLGKLL] (H-GALSLLSLLGKLL-NH2; N-terminus assumed)" unit_abbreviation=µM val=4

Tell me reported HL50 for CC(C)C[C@H](NC(=O)[C@H](CC(C)C)NC(=O)[C@H](CCCCN)NC(=O)CNC(=O)[C@H](CC(C)C)NC(=O)[C@H](CC(C)C)NC(=O)[C@H](CO)NC(=O)[C@H](CC(C)C)NC(=O)[C@H](C)NC(=O)[C@H](CO)NC(=O)[C@H](CC(C)C)NC(=O)[C@H](CC(C)C)NC(=O)CN)C(N)=O [DFT508, GLLSALSLLGKLL] (H-GLLSALSLLGKLL-NH2; N-terminus assumed) , tested with human red blood cells (hRBCs).
6
